Assay endpoint: IC50

Query N#Cc1cc(C(F)(F)F)cnc1N1CCN(C(=O)C2CC(NCc3cc(C(F)(F)F)c(=O)[nH]n3)C2)CC1 (stereo not drawn) [Embodiment 50] on PARP7 (Homo sapiens, UniProt Q7Z3E1); IC50 returned: 10 to 100 nM

Query O=c1[nH]nc(CN[C@H]2C[C@H](C(=O)N3CCN(c4ncc(C(F)(F)F)cc4C4CC4)CC3)C2)cc1C(F)(F)F [Embodiment 56] on PARP7 (Homo sapiens, UniProt Q7Z3E1); IC50 returned: 10 to 100 nM

Query C[C@@H](CN1CC[C@@H](C(=O)N2C3CCC2CN(c2ncc(C(F)(F)F)cn2)C3)C1)Nc1cn[nH]c(=O)c1C(F)(F)F [Embodiment 2] on PARP7 (Homo sapiens, UniProt Q7Z3E1); IC50 returned: 10 to 100 nM

Query O=c1[nH]cc(CN[C@H]2C[C@H](C(=O)N3C4CCC3CN(c3ncc(C(F)(F)F)cn3)C4)C2)cc1C(F)(F)F [Embodiment 4] on PARP7 (Homo sapiens, UniProt Q7Z3E1); IC50 returned: 10 to 100 nM

Query CNC(=O)c1cc(C(F)(F)F)cnc1N1CCN(C(=O)[C@H]2C[C@H](NC(C)(C)c3cc(C(F)(F)F)c(=O)[nH]n3)C2)CC1 [Embodiment 67] on PARP7 (Homo sapiens, UniProt Q7Z3E1); IC50 returned: < 10 nM

Query O=c1[nH]nc(CN[C@H]2C[C@H](C(=O)N3CCN4c5ncc(C(F)(F)F)cc5COC[C@@H]4C3)C2)cc1C(F)(F)F [Embodiment 43] on PARP7 (Homo sapiens, UniProt Q7Z3E1); IC50 returned: 10 to 100 nM
